Test system: M14 melanoma
TEST_SUMMARY: NCI tumour cell line growth inhibition, 48 h; in the data active means GI50 below about 0.43 µM; inactive means the rest
Pick from active, inactive when you respond.

Consider the worked cases shown below.
>  <SMILES_DATA>
COc1cc(C=NCC(=O)CSC(c2ccccc2)c2ccccc2)ccc1O

>  <LABEL_CLASS>
inactive

$$$$
>  <SMILES_DATA>
COc1ccc(C(=O)c2ccccc2)c(O)c1

>  <LABEL_CLASS>
inactive

$$$$

Now examine the next entry.
Which outcome did this test record for the compound COC(=O)N[C@@H](C)CNc1nccc(-c2cn(C(C)C)nc2-c2cc(Cl)cc(NS(C)(=O)=O)c2F)n1 ?
active

---

Exercise: state measured GI50 for each of the compounds provided.
Tested on: MDA-MB-231 breast
TEST_SUMMARY: NCI tumour cell line growth inhibition, 48 h

See these solved cases before continuing.
>  <SMILES_DATA>
COc1ccc2c(CN3CCCC[C@H]3O)cc3cc4c(cc3c2c1)OCO4

>  <QUANTITY_MEASURED>
GI50

>  <VAL>
0.62 µM

$$$$
>  <SMILES_DATA>
COc1ccc(-c2cn3ccnc3c(-c3ccc(Cl)cc3)n2)cc1

>  <QUANTITY_MEASURED>
GI50

>  <VAL>
4.13 µM

$$$$

Alright, here's another compound for you.
Record COC(=O)c1c(C(=O)O)c(-c2ccccc2)c(-c2ccccc2)c(-c2ccccc2)c1-c1ccccc1 . Reported GI50: > 100 µM

---

Test system: MDA-MB-435
TEST_SUMMARY: NCI tumour cell line growth inhibition, 48 h
QUANTITY_MEASURED: TGI

>  <COMPOUND>
COc1ccc(Cn2c(=O)c(OS(=O)(=O)C(F)(F)F)c(C)c3cc4ccccc4cc32)cc1

>  <TGI>
> 100 µM

$$$$
>  <COMPOUND>
COC1CCC(OC)C(c2nc3sccn3c2/C=N/N=C(N)N)C1 (stereo not given)

>  <TGI>
36 µM

$$$$
>  <COMPOUND>
COc1ccc2c(c1)[n+](=O)c(/C=C/C(=O)c1cc(OC)c(OC)c(OC)c1)c(C)n2[O-]

>  <TGI>
> 100 µM

$$$$
>  <COMPOUND>
COC(=O)c1c(C(=O)O)c(-c2ccccc2)c(-c2ccccc2)c(-c2ccccc2)c1-c1ccccc1

>  <TGI>
> 100 µM

$$$$
>  <COMPOUND>
OC(Cc1cccc2ccccc12)CN1CCC(c2ccccc2)CC1 (stereo not given)

>  <TGI>
28.3 µM

$$$$
>  <COMPOUND>
CN(CCOc1ccc(NS(C)(=O)=O)cc1)CCc1ccc(NS(C)(=O)=O)cc1

>  <TGI>
> 100 µM

$$$$

Please give TGI for each item listed below.
1. Cc1c2oc(=O)c(C#N)cc2c2ccccn12
2. COc1ccc(C2C3=C(COC3=O)Oc3cc4c(cc32)OCO4)cc1OC (stereo not given)
3. CC(C)=CC(=O)OC1C2C(C)=CC(=O)C(O)C2(C)C2C3(O)OCC24C(CC(=O)OC14)C(C)C3O (stereo not given)
4. CSCCC(NC(=O)C(Cc1c[nH]c2ccccc12)NC(=O)CCNC(=O)OC(C)(C)C)C(=O)NC(CC(=O)O)C(=O)NC(Cc1ccccc1)C(N)=O (stereo not given)
5. CCOC(=O)C1=C(N2CCCC2)C(=O)C(C(=O)OCC)C1 (stereo not given)
6. CN1CCC(O)(OC(=O)C(c2ccccc2)C2(O)CCCC2)CC1 (stereo not given)
7. COc1cc(N)c(Cl)cc1C(=O)N[C@@H]1CCN(CCCOc2ccc(F)cc2)C[C@@H]1OC
8. Cc1oc(N)c(S(=O)(=O)/C(C#N)=C/c2ccccc2[N+](=O)[O-])c1C

1: > 100 µM; 2: 0.751 µM; 3: 0.0103 µM; 4: > 50 µM; 5: > 100 µM; 6: > 100 µM; 7: > 100 µM; 8: > 100 µM

Record COc1cc(C2CC(c3ccc(Cl)cc3)=NN2C(C)=O)ccc1Oc1ccnc2cc(Cl)ccc12 (stereo not given) . Reported TGI: > 100 µM

---

Test system: SK-OV-3 ovarian
TEST_SUMMARY: NCI tumour cell line growth inhibition, 48 h
Exercise: state measured GI50 for each of the molecules provided.

>  <MOLECULE>
CC(C)=CC(=O)OC1C2C(C)=CC(=O)C(O)C2(C)C2C3(O)OCC24C(CC(=O)OC14)C(C)C3O (stereo unspecified)

>  <GI50>
0.549 µM

$$$$
>  <MOLECULE>
COC1CCC(OC)C(c2nc3sccn3c2/C=N/N=C(N)N)C1 (stereo unspecified)

>  <GI50>
47.1 µM

$$$$
>  <MOLECULE>
CC(C)(C)OC(=O)NCCCCCCCCCCCCn1c2c(c3ccccc3c1=O)C(=O)c1ccccc1-2

>  <GI50>
22.9 µM

$$$$
>  <MOLECULE>
CSC(=S)NCc1cn(C)c2ccccc12

>  <GI50>
30.2 µM

$$$$
>  <MOLECULE>
S=C(Nc1ccc(-c2nc3ccccc3s2)cc1)Nc1ccc(-c2nc3ccccc3s2)cc1

>  <GI50>
58.8 µM

$$$$
>  <MOLECULE>
Cc1cc(C)c(-c2c(O)c(Br)c(-c3c(C)cc(C)c(Br)c3C)c(O)c2Br)c(C)c1Br

>  <GI50>
4.77 µM

$$$$

Please give GI50 for each item listed below.
1. Cc1nc(C(=O)OCc2ccccc2)cc(OCc2ccccc2)c1C
2. Cn1cc(-c2csc(-c3ccc(Cl)cc3)n2)c2cccnc21
3. COc1ccc(/C=C(\C#N)c2cc(OC)c(OC)c(OC)c2)cc1
4. COc1c(OC2OC(C)C(O)C(O)C2O)c(OC)c2oc(-c3ccc(O)cc3)cc(=O)c2c1O (stereo unspecified)
5. COc1ccc(CN2c3ccccc3Sc3ccccc32)cc1O

1. > 89 µM
2. 15.9 µM
3. < 0.0138 µM
4. 86.3 µM
5. 0.521 µM

---

Test system: COLO 205 colon
TEST_SUMMARY: NCI tumour cell line growth inhibition, 48 h
QUANTITY_MEASURED: GI50

See these solved cases before continuing.
>  <COMPOUND>
Cn1cc(-c2csc(-c3ccc(Cl)cc3)n2)c2cccnc21

>  <GI50>
13.7 µM

$$$$
>  <COMPOUND>
COc1cc(N)c(Cl)cc1C(=O)N[C@@H]1CCN(CCCOc2ccc(F)cc2)C[C@@H]1OC

>  <GI50>
54.8 µM

$$$$
>  <COMPOUND>
C[C@]12CCC3c4ccc(O)cc4CCC3C1CC[C@@H]2NC(=O)/C=C/c1ccc(O)c(O)c1 (stereo partly specified)

>  <GI50>
13.1 µM

$$$$
>  <COMPOUND>
COC1CCC(OC)C(c2nc3sccn3c2/C=N/N=C(N)N)C1 (stereo unspecified)

>  <GI50>
25.3 µM

$$$$

Please give GI50 for each item listed below.
1. COc1ccc(N=c2nc3sc4cc(Cl)ccc4n3c(N)c2C#N)cc1
2. CCN(CC)c1ccc(/C=N/N=C(N)N)cc1
3. O=C(OCC1=CC(=O)c2ccccc2C1=O)c1ccccc1

1. 2.39 µM
2. 1.79 µM
3. 2.74 µM

---

Exercise: state measured TGI for each of the molecules provided.
Test system: NCI-H460 lung
TEST_SUMMARY: NCI tumour cell line growth inhibition, 48 h

>  <MOLECULE>
COC1CCC(CO)OO1 (stereo not drawn)

>  <MEASURED_TARGET>
NCI-H460 lung

>  <TGI>
> 100 µM

$$$$
>  <MOLECULE>
O=C(Oc1cncc(Cl)c1)c1cc2ccccc2sc1=O

>  <MEASURED_TARGET>
NCI-H460 lung

>  <TGI>
> 100 µM

$$$$
>  <MOLECULE>
CCOC(=N)CC(=O)Nc1ccccc1CC

>  <MEASURED_TARGET>
NCI-H460 lung

>  <TGI>
> 100 µM

$$$$
>  <MOLECULE>
N.N.N.N.O=S([O-])[O-].[Co+3].[N-]=[N+]=[N-]

>  <MEASURED_TARGET>
NCI-H460 lung

>  <TGI>
> 100 µM

$$$$
>  <MOLECULE>
COC(=O)CCCc1nc2ccccc2nc1N=Nc1ccccc1

>  <MEASURED_TARGET>
NCI-H460 lung

>  <TGI>
> 100 µM

$$$$
>  <MOLECULE>
CCOC(=O)C(Cc1cc(OC)c(CC(C(=O)OCC)C(=O)OCC)cc1OC)C(=O)OCC

>  <MEASURED_TARGET>
NCI-H460 lung

>  <TGI>
> 100 µM

$$$$
>  <MOLECULE>
COc1ccc(-c2nc(-c3cnccn3)n(C/C=C/c3ccccc3)n2)cc1

>  <MEASURED_TARGET>
NCI-H460 lung

>  <TGI>
> 100 µM

$$$$
>  <MOLECULE>
C[C@]12CC[C@H](OC(=O)Nc3ccccc3)CC1=CC[C@@H]1C2CC[C@]2(C)/C(=N/OC(=O)Nc3ccccc3)CCC12 (stereo partly drawn)

>  <MEASURED_TARGET>
NCI-H460 lung

>  <TGI>
> 100 µM

$$$$

Please give TGI for each item listed below.
1. Cn1cnnc1Sc1c([N+](=O)[O-])nc(-c2ccc([N+](=O)[O-])cc2)n1C
2. C=CC(C)(C)/C(=C\CO[Si](C(C)C)(C(C)C)C(C)C)C(=O)N(C)c1ccccc1I
3. C=C(CN1CCc2ccccc2C1)c1ccc(CCCC(=O)Nc2ccccc2N)cc1
4. S=C(Nc1ccc(-c2nc3ccccc3s2)cc1)Nc1ccc(-c2nc3ccccc3s2)cc1
5. O=C1OC2(CCCCC2)C(Oc2ccc(Cl)cc2)=C1F
6. CN1C2C=CC(=O)C1C(C#N)C2 (stereo not drawn)
7. C=CCCCN(C(=O)c1ccccc1)c1ccc(C(=O)OC)o1
8. CCNC1CC(n2cc(C)c(=O)[nH]c2=O)OC1CO (stereo not drawn)

> 100 µM
28.1 µM
> 100 µM
63.9 µM
> 100 µM
> 100 µM
> 100 µM
> 100 µM

Please give TGI for each item listed below.
1. O=C1C(=O)N(c2cc(Cl)ccc2Cl)C(=O)C(=O)C1c1nc2ccccc2s1
2. C/C(=N/NC(N)=S)C(CN1CCOCC1)C(C1=C(O)c2ccccc2OC1)c1ccccc1 (stereo not drawn)
3. CC(NC1CCCC[C@@H]1O)c1ccccc1 (stereo partly drawn)
4. COC1OC(C)/C(=N/O)C2OC(C)(C)OC12 (stereo not drawn)
5. C/C(=N\Nc1nc2cc(F)ccc2s1)c1ccccn1

1. > 100 µM
2. > 100 µM
3. > 100 µM
4. > 100 µM
5. > 100 µM

Please give TGI for each item listed below.
1. O=C(O)CCN1C(=S)CSC1=S
2. COc1cc(C=NCC(=O)CSC(c2ccccc2)c2ccccc2)ccc1O

1: > 100 µM; 2: 56.2 µM
